# System: Bacteroides caccae
# experiment notes: growth AUC relative to DMSO control (median of replicates) (fraction); higher = more growth (less inhibition), active = hit call of the paper
# particulars: 20 µM; 24 h
experimental endpoint: growth AUC
Provide a numeric answer; units are not to be included.

compound	growth AUC
Nc1cc(Cl)ccc1Cl	0.993
COc1cnc(OC)n2nc(NS(=O)(=O)c3c(OCC(F)F)cccc3C(F)(F)F)nc12	1.03

// query Value lookup for growth AUC; key = CCCN(CCCl)c1c([N+](=O)[O-])cc(C(F)(F)F)cc1[N+](=O)[O-]
// result 0.977

// query Again, but for COc1ccc(/C(=C/C(=O)N2CCOCC2)c2ccc(Cl)cc2)cc1OC
// result 0.962

// query Same lookup for COc1cc(OC)nc(NC(=O)NS(=O)(=O)c2ncccc2C(=O)N(C)C)n1 , please.
// result 0.94
